// solubility lookup, one value per entry
Assay: Solubility in water
Assay type: physicochemical
value_kind: solubility

INSERT INTO assay_data (compound, endpoint_value) VALUES
  ('C[C@]12CC[C@@H]3c4cc(O)c(O)cc4CC[C@H]3[C@@H]1CC[C@@H]2O[C@@H]1O[C@H](CO)[C@@H](O[C@H]2O[C@H](CO)[C@@H](O)[C@H](O)[C@H]2O)[C@H](O)[C@H]1O [2-OHE2 17-Mal, 2-hydroxyestradiol 17-(β-maltoside)]', '2 mL'),
  ('C[C@]12CC[C@@H]3c4cc(O[C@@H]5O[C@H](CO)[C@@H](O)[C@H](O)[C@H]5O)c(O)cc4CC[C@H]3[C@@H]1CC[C@@H]2O', '0.5 to 1 mL'),
  ('C[C@]12CC[C@@H]3c4cc(O)c(O)cc4CC[C@H]3[C@@H]1CC[C@@H]2O[C@@H]1O[C@H](CO)[C@@H](O)[C@H](O)[C@H]1O', '2 to 3 mL'),
  ('C[C@]12CC[C@@H]3c4cc(O)c(O[C@@H]5O[C@H](CO)[C@@H](O)[C@H](O)[C@H]5O)cc4CC[C@H]3[C@@H]1CC[C@@H]2O', '3 mL');

====

Experiment: Solubility in water
Type: physicochemical
Details: water
value_kind: solubility (µg/mL)

INSERT INTO assay_data (molecule, value_kind, endpoint_value) VALUES
  ('C[C@]12CC[C@@H]3c4cc(O[C@@H]5O[C@H](CO)[C@@H](O)[C@H](O)[C@H]5O)c(O)cc4CC[C@H]3[C@@H]1CC[C@@H]2O', 'solubility', 1430),
  ('C[C@]12CC[C@@H]3c4cc(O)c(O[C@@H]5O[C@H](CO)[C@@H](O)[C@H](O)[C@H]5O)cc4CC[C@H]3[C@@H]1CC[C@@H]2O', 'solubility', 333),
  ('C[C@]12CC[C@@H]3c4cc(O)c(O)cc4CC[C@H]3[C@@H]1CC[C@@H]2O[C@@H]1O[C@H](CO)[C@@H](O[C@H]2O[C@H](CO)[C@@H](O)[C@H](O)[C@H]2O)[C@H](O)[C@H]1O [2-OHE2 17-Mal, 2-hydroxyestradiol 17-(β-maltoside)]', 'solubility', 500);

====

Assay: Acute toxicity (intraperitoneal injection)
Type: in vivo, mouse
Conditions: mouse, in vivo, ip; male ddY mice, intraperitoneal; 2 weeks
value_kind: LD50 at 336 h

INSERT INTO assay_data (compound, value_kind, endpoint_value) VALUES
  ('C[C@]12CC[C@@H]3c4cc(O[C@@H]5O[C@H](CO)[C@@H](O)[C@H](O)[C@H]5O)c(O)cc4CC[C@H]3[C@@H]1CC[C@@H]2O [2-OHE2 2-Glu]', 'LD50 at 336 h', '> 100 mg/kg'),
  ('C[C@]12CC[C@@H]3c4cc(O)c(O)cc4CC[C@H]3[C@@H]1CC[C@@H]2O[C@@H]1O[C@H](CO)[C@@H](O)[C@H](O)[C@H]1O [2-OHE2 17-Glu]', 'LD50 at 336 h', '> 100 mg/kg');
